Taken from patent US20190336496A1.

System: RKO
Assay: Venetoclax cell killing (CellTiter-Glo)
Type: cell-based
Conditions: Homo sapiens, 120 h, Colorectal, 10% FBS, 5 days
pIC50: −log10 of the molar value.
Measured endpoint: pIC50

Give the reported pIC50 for this molecule. "CC1(C)CCC(CN2CCN(c3ccc(C(=O)NS(=O)(=O)c4ccc(NCC5CCOCC5)c([N+](=O)[O-])c4)c(Oc4cnc5[nH]ccc5c4)c3)CC2)=C(c2ccc(Cl)cc2)C1"
< 5.00

###

Tested on: NCI-H460
Experiment: Venetoclax cell killing (CellTiter-Glo)
Type: cell-based
Details: Homo sapiens, NCI-H460, 72 h; Lung; 10% FBS; 3 days
Measured endpoint: IC50

Give the reported IC50 for this compound. "CC1(C)CCC(CN2CCN(c3ccc(C(=O)NS(=O)(=O)c4ccc(NCC5CCOCC5)c([N+](=O)[O-])c4)c(Oc4cnc5[nH]ccc5c4)c3)CC2)=C(c2ccc(Cl)cc2)C1"
> 10 µM

###

Test system: SJSA-1
Assay: Venetoclax cell killing (CellTiter-Glo)
Assay type: cell-based
Conditions: Homo sapiens, SJSA-1, 120 h; Osteosarcoma; 10% FBS; 5 days
Measured endpoint: IC50

Give the reported IC50 for this molecule. CC1(C)CCC(CN2CCN(c3ccc(C(=O)NS(=O)(=O)c4ccc(NCC5CCOCC5)c([N+](=O)[O-])c4)c(Oc4cnc5[nH]ccc5c4)c3)CC2)=C(c2ccc(Cl)cc2)C1 [Compound (I), venetoclax]
> 10 µM

###

Test system: COLO-205
Test: Venetoclax cell killing (CellTiter-Glo)
Type: cell-based
Settings: Homo sapiens, COLO 205, 120 h; Colorectal; 10% FBS; 5 days
Measured endpoint: IC50

Give the reported IC50 for this compound. CC1(C)CCC(CN2CCN(c3ccc(C(=O)NS(=O)(=O)c4ccc(NCC5CCOCC5)c([N+](=O)[O-])c4)c(Oc4cnc5[nH]ccc5c4)c3)CC2)=C(c2ccc(Cl)cc2)C1 [Compound (I), venetoclax]
> 10 µM

###

Test system: B16F10
Test: Venetoclax cell killing (CellTiter-Glo)
Type: cell-based, murine
Details: Mus musculus, B16-F10, 72 h; Melanoma; 10% FBS; 3 days
pIC50: −log10 of the molar value.
Measured endpoint: pIC50

Give the reported pIC50 for this compound. "CC1(C)CCC(CN2CCN(c3ccc(C(=O)NS(=O)(=O)c4ccc(NCC5CCOCC5)c([N+](=O)[O-])c4)c(Oc4cnc5[nH]ccc5c4)c3)CC2)=C(c2ccc(Cl)cc2)C1"
< 5.00

###

Tested on: NCI-H1975
Test: Venetoclax cell killing (CellTiter-Glo)
Type: cell-based
Conditions: Homo sapiens, NCI-H1975, 72 h; Lung; 10% FBS; 3 days
Measured endpoint: IC50

# return IC50 for "CC1(C)CCC(CN2CCN(c3ccc(C(=O)NS(=O)(=O)c4ccc(NCC5CCOCC5)c([N+](=O)[O-])c4)c(Oc4cnc5[nH]ccc5c4)c3)CC2)=C(c2ccc(Cl)cc2)C1" , test system: NCI-H1975
> 10 µM

###

Tested on: NCI-H2009
Test: Venetoclax cell killing (CellTiter-Glo)
Format: cell-based
Settings: Homo sapiens, NCI-H2009, 72 h; Lung; 10% FBS; 3 days
Experimental: Solid tumor cell lines were obtained from American Type Culture Collection (ATCC, Manassas, Va.) or the National Cancer Institute (NCI) and cultured in humidified incubators at 37° C. […] After 1 to 5 days of culture in the presence of venetoclax, cell viability was assessed using CellTiter-Glo® reagent (Promega). IC50 values were determined by non-linear regression analysis of the concentration response data (Table 5 and Table 6).
Measured endpoint: IC50 (µM)
Output spec: scalar in µM, unitless text.

# return IC50 for "CC1(C)CCC(CN2CCN(c3ccc(C(=O)NS(=O)(=O)c4ccc(NCC5CCOCC5)c([N+](=O)[O-])c4)c(Oc4cnc5[nH]ccc5c4)c3)CC2)=C(c2ccc(Cl)cc2)C1" , test system: NCI-H2009
4.11
